# PROCEDURE_TEXT: M. tuberculosis growth inhibition, HTS (AID 449762);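 further: bacterial growth assessed after seven days of incubation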
# RUN_CONDITIONS: M. tuberculosis H37Rv growth inhibition, 7H9 media; at 25 µM; hits give high values
Hit rate of the full screen: of about 330,000 compounds, about 1,900 (0.58%) were called active. About 4% were inconclusive and are not listed. These entries were drawn from the full list. Results with a measured potency or affinity are listed apart.
Each entry below lists one item and its recorded inhibition value.
MEASUREMENT_NAME: inhibition (%)

- CPD_SMILES: "Cc1cc(OC2CCCCC2)nc(-c2ccccc2O)n1"
  MEASUREMENT_NAME: "inhibition"
  REPORTED_VALUE: -9.08
- CPD_SMILES: "Cc1ccccc1NC(=O)CSc1nc2ccccc2c2nc(CCn3cncc3C)nn12"
  MEASUREMENT_NAME: "inhibition"
  REPORTED_VALUE: 6.6
- CPD_SMILES: "CN1CCc2c(C#N)c(N3CCCCC3)nc(NCc3ccccc3)c2C1"
  MEASUREMENT_NAME: "inhibition"
  REPORTED_VALUE: 8.6
- CPD_SMILES: "COc1ccc(Nc2nc(-c3ccc(OC)cc3)c(CCC(=O)O)s2)cc1"
  MEASUREMENT_NAME: "inhibition"
  REPORTED_VALUE: 26.3
- CPD_SMILES: "Cc1c(CN(C)C)c2c(n1Cc1ccccc1)C(=O)c1ccccc1-2"
  MEASUREMENT_NAME: "inhibition"
  REPORTED_VALUE: -0.73
